system: UACC-257 melanoma; experiment: NCI-60 one-dose screen, 48 h; conditions: 10 µM unless noted
This is part of a sample that, as a whole, favours compounds with a hit. Of some 83,000 tested, about 20% had one in any assay. Active and inactive are the calls of the source. The calls were made as follows: active = growth percent below 10; inactive = the rest.
Possible outcomes: active, inactive

[[record]]
compound = "COc1ccc(S(=O)(=O)c2ccc(F)cc2)cc1"
class_label = "inactive"

[[record]]
compound = "CCOC(=O)CN1CCC(C(=O)OCC)CC1"
class_label = "inactive"

[[record]]
compound = "CC(=O)c1cc2ccccc2o1"
class_label = "inactive"

[[record]]
compound = "COc1ccc(/C=N/NC(N)=S)cc1"
class_label = "inactive"

[[record]]
compound = "O=C1c2ccccc2C(c2ccccc2)C1c1ccccc1 (stereo not drawn)"
class_label = "inactive"

[[record]]
compound = "COC(=O)c1ccccc1Cl"
class_label = "inactive"

[[record]]
compound = "O=c1[nH]c(=O)c2[nH]c(=O)[nH]c2[nH]1"
class_label = "inactive"

[[record]]
compound = "O=C1c2cccnc2-c2ncccc21"
class_label = "inactive"

[[record]]
compound = "CC(C)(C)OC(=O)CC1(O)CCCCC1"
class_label = "inactive"

[[record]]
compound = "CCOC(=O)c1csc(N)n1"
class_label = "inactive"

[[record]]
compound = "CCCCOC1NC(=O)NC(=O)C1(F)C(=O)OCC (stereo not drawn)"
class_label = "inactive"

[[record]]
compound = "Cc1cc2ccccc2c2cc3ccccc3cc12"
class_label = "inactive"

[[record]]
compound = "S=c1nn[nH]n1C1CCCCC1"
class_label = "inactive"

[[record]]
compound = "COC(=O)C(Cc1cn(C(C)=O)c2ccccc12)P(=O)(OC)OC (stereo not drawn)"
class_label = "inactive"

[[record]]
compound = "CC1CC(O)CC(C)(C)C1.CC1CC(O)CC(C)(C)C1.CC1CC(O)CC(C)(C)C1.CC1CC(O)CC(C)(C)C1.[Ti] (stereo not drawn)"
class_label = "inactive"

[[record]]
compound = "O=C(O)c1ccc2c3ccc(C(=O)O)c4c(C(=O)O)ccc(c5ccc(C(=O)O)c1c25)c43"
class_label = "active"

[[record]]
compound = "O=[N+]([O-])c1ccc(NC(c2ccccc2)c2ccc3cccnc3c2O)cc1 (stereo not drawn)"
class_label = "active"

[[record]]
compound = "Cn1c(N)c(N=O)c(=O)n(C)c1=O"
class_label = "inactive"

[[record]]
compound = "COC(=O)CCOc1ccccc1"
class_label = "inactive"

[[record]]
compound = "CCOC(=O)c1ccncc1"
class_label = "inactive"

[[record]]
compound = "CCOC(=N)c1ccc(C(=N)OCC)cc1"
class_label = "inactive"

[[record]]
compound = "C/C(=C\\c1ccccc1)C(O)C(=O)c1nc2ccc([N+](=O)[O-])cc2[nH]c1=O (stereo not drawn)"
class_label = "inactive"

[[record]]
compound = "COC(=O)c1cc(C(=O)OC)cc([N+](=O)[O-])c1"
class_label = "inactive"

[[record]]
compound = "CCCCNC(=O)c1ccccc1C"
class_label = "inactive"

[[record]]
compound = "O=C1C=CC(n2cc(F)c(=O)[nH]c2=O)O1 (stereo not drawn)"
class_label = "inactive"

[[record]]
compound = "COc1cc2c(cc1O)C(=O)CCCC2"
class_label = "inactive"

[[record]]
compound = "NNc1ncnc2cccc(Cl)c12"
class_label = "inactive"

[[record]]
compound = "CC1=CC(=O)c2cccc(NC3=NCCO3)c21"
class_label = "inactive"

